B1: REST corepressor 3, residues 87 to 134; numbered along this chain, Q9P2K3 (parent)
chain: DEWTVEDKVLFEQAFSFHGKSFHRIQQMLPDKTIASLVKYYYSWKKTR

# Variants of: B1
# Test description: abundance fitness (aPCA) (normalised: wild type 0, dead -1); higher = more abundant; growth selection in yeast, the domain comes from the species named
# Experimental setup: Homo sapiens
# label = Satisfied if abundance fitness >= -0.3 else Not satisfied

DEWTVEDKVLFEQAFSFHGKSFHRIQQMLADKTIASLVKYYYSWKKTR [P30A] | Not satisfied
DEWTVEDKVLFEQAFSFHGKSFHRIQQMLPDKTIASLVKYYYSWKKIR [T47I] | Not satisfied
DEWTVEDKVLFEQAFSFHGKSFHRIQQMLPDKTIASLTKYYYSWKKTR [V38T] | Satisfied
DEWTVEDKVLFEQAFIFHGKSFHRIQQMLPDKTIASLVKYYYSWKKTR [S16I] | Not satisfied

Has DEWTVEDKVLFEQAFSFHGKSFHRIQQMLPDKTIAWLVKYYYSWKKTR [S36W] a recorded abundance fitness greater than or equal to -0.3?
Not satisfied

Has DEWTVEDKVLFGQAFSFHGKSFHRIQQMLPDKTIASLVKYYYSWKKTR [E12G] a recorded abundance fitness greater than or equal to -0.3?
Not satisfied

Has DEWTVEDKVLFEQAFSFHGESFHRIQQMLPDKTIASLVKYYYSWKKTR [K20E] a recorded abundance fitness greater than or equal to -0.3?
Not satisfied

Has DEWPVEDKVLFEQAFSFHGKSFHRIQQMLPDKTIASLVKYYYSWKKTR [T4P] a recorded abundance fitness greater than or equal to -0.3?
Not satisfied

Has DEWTVEDKVLFEQAFSFHGKSFHRIQQMLHDKTIASLVKYYYSWKKTR [P30H] a recorded abundance fitness greater than or equal to -0.3?
Not satisfied
